Test system: FVIII deficient human plasma
Assay: Thrombin generation assay (TGA) in FVIII-deficient plasma
Type: biochemical
Set-up: key: 1-10 nM (1) or 1-29 nM (2) (+); 11-20 nM (1) or 30-59 nM (2) (++); 21-30 nM (1) or 60-90 nM (2) (+++); >30 nM (1) or >90 nM (2) (++++); At or about baseline (−)
Details: HRF FVIII-deficient plasma (1); 20 μM
measurement_label: Thrombin Above Baseline (nM)

KLTCLASYCWLF [Compound 1]; −

###

Biological target: FIXa (Homo sapiens)
Sequence (P00740 47-191 limits assumed): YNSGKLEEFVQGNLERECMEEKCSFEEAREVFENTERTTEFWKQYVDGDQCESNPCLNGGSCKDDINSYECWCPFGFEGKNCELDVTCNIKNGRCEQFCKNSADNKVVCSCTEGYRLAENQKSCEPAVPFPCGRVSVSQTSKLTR
Sequence (P00740 227-461 limits assumed): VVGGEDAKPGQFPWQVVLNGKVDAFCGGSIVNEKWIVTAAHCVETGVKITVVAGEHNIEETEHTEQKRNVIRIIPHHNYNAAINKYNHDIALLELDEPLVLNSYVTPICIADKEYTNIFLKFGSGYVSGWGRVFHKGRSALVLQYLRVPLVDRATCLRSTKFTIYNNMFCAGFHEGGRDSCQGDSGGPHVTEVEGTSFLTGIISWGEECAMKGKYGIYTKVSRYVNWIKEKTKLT
Experiment: FXa generation assay with human FIXa
Type: biochemical
Parameters: purchased Haematologic Technologies
Conditions: FXa generation assay using human FIXa; numeric bounds
Reported Vmax by item:

Some sequences with recorded Vmax:
HYARVQLRCLDGYCWLLTKSRM; >2.5
LRQRLAKTCVASYCWLFSLVAS; >1.5
WVPQWKVTCLASCSRLFHGFDA; >1.5

Asked: Look up and state reported Vmax for RCAQSRLPWLVSYCWLFSPYGM
Given back: >1.5

Asked: Look up and state reported Vmax for KKTCVASFCQMI
Given back: >4

Asked: Look up and state reported Vmax for RYQRARLTCLASYCGLLFSMSA
Given back: >0.5

Asked: Look up and state reported Vmax for EGRRDKLTCLASYCWLVGHGQH
Given back: >0.3

Asked: Look up and state reported Vmax for GASGRRRTCVASYCLLFQSGLP
Given back: >0.1

Just for reference, patent US9486507B2 is where these values come from.
